Target: human PD-1 / PD-L1-Ig binding on Jurkat cell line over-expressing human PD-1 (Jurkat-PD-1) (Homo sapiens)
Construct: expressed in transfected cells; host or cells: Jurkat
Sequence (Q15116 25-288): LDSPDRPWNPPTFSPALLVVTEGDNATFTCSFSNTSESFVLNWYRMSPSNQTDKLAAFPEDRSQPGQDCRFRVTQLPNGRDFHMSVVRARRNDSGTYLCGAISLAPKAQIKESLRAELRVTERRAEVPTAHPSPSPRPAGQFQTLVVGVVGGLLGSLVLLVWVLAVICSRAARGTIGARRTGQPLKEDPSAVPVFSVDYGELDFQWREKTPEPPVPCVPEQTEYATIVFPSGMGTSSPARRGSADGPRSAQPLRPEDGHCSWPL
Experiment: Jurkat-PD-1 Cell Binding High-Content Screening Assay (CBA)
Assay type: cell-based
Conditions: Jurkat-PD-1 cells, PE-labeled PD-L1-Ig 20 nM final; read-out: Jurkat HPD1_PDL1 IC50
pIC50: −log10 of the molar value. Where a SMILES comes first, the peptide text is derived from it. Bridges are numbered along the chain shown (N, C = ends). [ ]: non-standard residue; d: D form. Bip = N[C@@H](Cc1ccc(-c2ccccc2)cc1)C(=O)O; Orn = NCCC[C@H](N)C(=O)O; Dab = NCC[C@H](N)C(=O)O

>  <compound>
CC(C)C[C@H]1NC(=O)[C@H](CCCN)NC(=O)[C@H](CCC(=O)O)NC(=O)[C@H](Cc2ccc(-c3ccccc3)cc2)NC(=O)[C@H](C(C)C)NC(=O)[C@H](Cc2c[nH]c3ccccc23)NC(=O)[C@H](CC(=O)O)NC(=O)[C@H](Cc2ccc(OCC(=O)O)cc2)NC(=O)[C@H](CN)NC(=O)CSC[C@@H](C(=O)N[C@@H](C)C(N)=O)NC(=O)[C@H]([C@@H](C)O)NC(=O)[C@H](C(C)C)NC(=O)[C@H](Cc2ccn[nH]2)NC(=O)[C@H](CCN)NC1=O

>  <pIC50>
6.38

$$$$
>  <compound>
CCCC[C@@H]1NC(=O)[C@H](CCN)NC(=O)[C@@H](CC(C)C)NC(=O)[C@H](CCCN)NC(=O)[C@H]([C@@H](C)CC)NC(=O)[C@H](Cc2ccc(-c3ccccc3)cc2)NC(=O)[C@H](C(C)C)NC(=O)[C@H](Cc2cccc(C)c2)NC(=O)[C@H](CC(=O)O)NC(=O)[C@H](Cc2ccc(C(=O)O)cc2)NC(=O)[C@H](Cc2ccncc2)NC(=O)CSC[C@@H](C(=O)N[C@@H](C)C(N)=O)NC(=O)[C@H]([C@@H](C)O)NC(=O)[C@H](C(C)C)NC1=O

>  <pIC50>
8.00

$$$$
>  <compound>
CC[C@H](C)[C@@H]1NC(=O)[C@H](Cc2ccc(-c3ccccc3)cc2)NC(=O)[C@H](C(C)C)NC(=O)[C@H](Cc2c[nH]c3ccccc23)NC(=O)[C@H](CC(=O)O)NC(=O)[C@H](Cc2ccc(O)cc2)NC(=O)[C@H](CC(N)=O)NC(=O)CSC[C@@H](C(=O)NCC(N)=O)NC(=O)[C@H]([C@@H](C)O)NC(=O)[C@H](C(C)C)NC(=O)[C@H](CC(C)C)NC(=O)[C@H](CCN)NC(=O)[C@@H](CC(C)C)NC(=O)[C@H](CCCN)NC1=O [Compound 1124] ({CH2CO}-NYDWV[Bip]I[Orn][dL][Dab]LVTCG-NH2; thioether N-14)

>  <pIC50>
7.61

$$$$
>  <compound>
CC(C)C[C@H]1NC(=O)[C@H](CCCN)NC(=O)[C@H](CCC(=O)O)NC(=O)[C@H](Cc2ccc(-c3ccccc3)cc2)NC(=O)[C@H](C(C)C)NC(=O)[C@H](Cc2c[nH]c3ccccc23)NC(=O)[C@H](CC(=O)O)NC(=O)[C@H](Cc2ccc(C(=O)O)cc2)NC(=O)[C@H](CN)NC(=O)CSC[C@@H](C(=O)N[C@@H](C)C(N)=O)NC(=O)[C@H]([C@@H](C)O)NC(=O)[C@H](C(C)C)NC(=O)[C@H](CC2CCCCC2)NC(=O)[C@H](CCN)NC1=O

>  <pIC50>
7.98

$$$$
>  <compound>
CC[C@H](C)[C@@H]1NC(=O)[C@H](Cc2ccc(-c3ccccc3)cc2)NC(=O)[C@H](C(C)C)NC(=O)[C@H](Cc2c[nH]c3ccccc23)NC(=O)[C@H](CC(=O)O)NC(=O)[C@H](Cc2ccc(O)cc2)NC(=O)[C@H](CN)NC(=O)CSC[C@@H](C(=O)N[C@@H](C)C(N)=O)NC(=O)[C@H]([C@@H](C)O)NC(=O)[C@H](C(C)C)NC(=O)[C@H](CC2CCCCC2)NC(=O)[C@H](CCN)NC(=O)[C@@H](CC(C)C)NC(=O)[C@H](CCCN)NC1=O

>  <pIC50>
8.09

$$$$
>  <compound>
CC(C)C[C@H]1NC(=O)[C@H](CCCN)NC(=O)[C@H](CCC(=O)O)NC(=O)[C@H](Cc2ccc(-c3ccccc3)cc2)NC(=O)[C@H](C(C)C)NC(=O)[C@H](Cc2cc(F)c(F)c(F)c2)NC(=O)[C@H](CC(=O)O)NC(=O)[C@H](Cc2ccc(OCC(=O)O)cc2)NC(=O)[C@H](CN)NC(=O)CSC[C@@H](C(=O)N[C@@H](C)C(N)=O)NC(=O)[C@H]([C@@H](C)O)NC(=O)[C@H](C(C)C)NC(=O)[C@H](CC2CCCCC2)NC(=O)[C@H](CCN)NC1=O

>  <pIC50>
7.38

$$$$
>  <compound>
CC(C)C[C@@H]1NC(=O)[C@H](Cc2c[nH]c3ccccc23)NC(=O)[C@H](CC(=O)O)NC(=O)[C@H](Cc2ccc(O)cc2)NC(=O)[C@H](Cc2ccccc2)NC(=O)CSC[C@@H](C(=O)N[C@@H](C)C(N)=O)NC(=O)[C@H]([C@@H](C)O)NC(=O)[C@H](C(C)C)NC(=O)[C@H](CC(C)C)NC(=O)[C@H](CCN)NC(=O)[C@@H](CC(C)C)NC(=O)[C@H](CCN)NC(=O)[C@H](C(C)C)NC(=O)[C@H](Cc2ccc(-c3ccccc3)cc2)NC1=O [Compound 1062] ({CH2CO}-FYDWL[Bip]V[Dab][dL][Dab]LVTCA-NH2; thioether N-14)

>  <pIC50>
7.91

$$$$
>  <compound>
CC(C)C[C@H]1NC(=O)[C@H](CCCN)NC(=O)[C@H](CCC(=O)O)NC(=O)[C@H](Cc2ccc(-c3ccccc3)cc2)NC(=O)[C@H](C(C)C)NC(=O)[C@H](Cc2c[nH]c3ccccc23)NC(=O)[C@H](CC(=O)O)NC(=O)[C@H](Cc2cccs2)NC(=O)[C@H](Cc2ccc(OCC(=O)O)cc2)NC(=O)CSC[C@@H](C(=O)N[C@@H](C)C(N)=O)NC(=O)[C@H]([C@@H](C)O)NC(=O)[C@H](C(C)C)NC(=O)[C@H](CC2CCCCC2)NC(=O)[C@H](CCN)NC1=O

>  <pIC50>
7.63

$$$$

This collection of values is drawn from patent US20250163104A1.
